Origin of the recorded values: patent US20250154202A1

assay: Plasma stability, human plasma; details: human plasma, 37° C., timepoint 2 h
Bridge positions count the residues as written; N and C are the ends. Peptide text beside a SMILES is read from it.

compound: CC(=O)N[C@@H](CO)C(=O)N[C@@H](CCCNC(=N)N)C(=O)N[C@@H](CC(C)C)C(=O)N[C@@H](CCC(=O)O)C(=O)N[C@H]1CC(=O)NCCCC[C@@H](C(=O)N[C@@H](CCCNC(=N)N)C(=O)N[C@@H](CC(C)C)C(=O)N[C@H](C(=O)N[C@@H](CCC(=O)O)C(N)=O)[C@@H](C)O)NC(=O)[C@H](CCCNC(=N)N)NC(=O)[C@H](CC(C)C)NC(=O)[C@H](CCC(=O)O)NC1=O [SD15196] (Ac-SRLEDELRKRLTE-NH2; lactam 5-9)
Mean (compound concentration): 2.21
//
compound: CC(=O)N[C@@H](CO)C(=O)N[C@@H](CCCNC(=N)N)C(=O)N[C@@H](CC(C)C)C(=O)N[C@@H](CCC(=O)O)C(=O)N[C@H]1CCC(=O)NCCCC[C@@H](C(=O)N[C@@H](CCCNC(=N)N)C(=O)N[C@@H](CC(C)C)C(=O)N[C@H](C(=O)N[C@@H](CCC(=O)O)C(N)=O)[C@@H](C)O)NC(=O)[C@H](CCCNC(=N)N)NC(=O)[C@H](CC(C)C)NC(=O)[C@H](CCC(=O)O)NC1=O [SD15194] (Ac-SRLEEELRKRLTE-NH2; lactam 5-9)
Mean (compound concentration): 2.09
//
compound: CC(=O)N[C@@H](CO)C(=O)N[C@@H](CCCNC(=N)N)C(=O)N[C@@H](CC(C)C)C(=O)N[C@@H](CCC(=O)O)C(=O)N[C@H]1CCC(=O)NCCCC[C@@H](C(=O)N[C@@H](CCCNC(=N)N)C(=O)N[C@@H](CCCNC(=N)N)C(=O)N[C@@H](CC(C)C)C(=O)N[C@H](C(=O)N[C@@H](CCC(=O)O)C(N)=O)[C@@H](C)O)NC(=O)[C@H](CC(C)C)NC(=O)[C@H](CCC(=O)O)NC1=O [SD15192] (Ac-SRLEEELKRRLTE-NH2; lactam 5-8)
Mean (compound concentration): 1.76
//
compound: CC(=O)N[C@@H](CO)C(=O)N[C@@H](CCCNC(=N)N)C(=O)N[C@@H](CC(C)C)C(=O)N[C@@H](CCC(=O)O)C(=O)N[C@@H](CCC(=O)O)C(=O)N[C@@H](CCC(=O)O)C(=O)N[C@@H](CC(C)C)C(=O)N[C@@H](CCCNC(=N)N)C(=O)N[C@H]1CCCCNC(=O)CC[C@@H](C(N)=O)NC(=O)[C@H]([C@@H](C)O)NC(=O)[C@H](CC(C)C)NC(=O)[C@H](CCCNC(=N)N)NC1=O [SD15193] (Ac-SRLEEELRKRLTE-NH2; lactam 9-13)
Mean (compound concentration): 2.71

* * *

conditions: mouse, in vivo, iv, 3 mg/kg, C0
recorded-metric: C0

substance: Ac-PSRLEEELRRRLTE-NH2 [SD14316]
recorded-metric: C0
result: ~656 ng/mL

* * *

details: mouse, in vivo, iv, 10 mg/kg, AUC0-t

substance: Ac-PSRLEEELRRRLTE-NH2 [SD14316]
AUC(0-t) / ng·h/mL: 230

* * *

Reported values of half-life for individual entries
test: Plasma stability, human plasma; details: human, plasma, Flag (half-life, assay exceeded), human plasma, 37° C.
Bridge positions count the residues as written; N and C are the ends. Square brackets hold non-standard residues; d marks the D form. Peptide text beside a SMILES is read from it.

molecule: CC(=O)N1CCC[C@H]1C(=O)N[C@@H](CO)C(=O)N[C@@H](CCCNC(=N)N)C(=O)N[C@@H](CC(C)C)C(=O)N[C@@H](CCC(=O)O)C(=O)N[C@H]1CSSC[C@H](C(=O)N[C@@H](CCCNC(=N)N)C(=O)N[C@@H](CCCNC(=N)N)C(=O)N[C@@H](CC(C)C)C(=O)N[C@H](C(=O)N[C@@H](CCC(=O)O)C(N)=O)[C@@H](C)O)NC(=O)[C@H](CC(C)C)NC(=O)[C@H](CCC(=O)O)NC1=O [SD15807] (Ac-PSRLECEL[dC]RRLTE-NH2; disulfide 6-9)
half-life: > 6 h
--
molecule: CC(=O)N[C@@H](CO)C(=O)N[C@@H](CCCNC(=N)N)C(=O)N[C@@H](CC(C)C)C(=O)N[C@@H](CCC(=O)O)C(=O)N[C@H]1CCC(=O)NCCCC[C@@H](C(=O)N[C@@H](CCCNC(=N)N)C(=O)N[C@@H](CC(C)C)C(=O)N[C@H](C(=O)N[C@@H](CCC(=O)O)C(N)=O)[C@@H](C)O)NC(=O)[C@H](CCCNC(=N)N)NC(=O)[C@H](CC(C)C)NC(=O)[C@H](CCC(=O)O)NC1=O [SD15194] (Ac-SRLEEELRKRLTE-NH2; lactam 5-9)
half-life: > 24 h
--
molecule: CC(=O)N[C@@H](CO)C(=O)N[C@@H](CCCNC(=N)N)C(=O)N[C@@H](CC(C)C)C(=O)N[C@@H](CCC(=O)O)C(=O)N[C@@H](CCC(=O)O)C(=O)N[C@@H](CCC(=O)O)C(=O)N[C@@H](CC(C)C)C(=O)N[C@@H](CCCNC(=N)N)C(=O)N[C@H]1CCCCNC(=O)CC[C@@H](C(N)=O)NC(=O)[C@H]([C@@H](C)O)NC(=O)[C@H](CC(C)C)NC(=O)[C@H](CCCNC(=N)N)NC1=O [SD15193] (Ac-SRLEEELRKRLTE-NH2; lactam 9-13)
half-life: > 24 h
--
molecule: CC(=O)N1CCC[C@H]1C(=O)N[C@@H](CO)C(=O)N[C@@H](CCCNC(=N)N)C(=O)N[C@@H](CC(C)C)C(=O)N[C@@H](CCC(=O)O)C(=O)N[C@H]1CCCCNC(=O)CC[C@@H](C(=O)N[C@@H](CCCNC(=N)N)C(=O)N[C@@H](CC(C)C)C(=O)N[C@H](C(=O)N[C@@H](CCC(=O)O)C(N)=O)[C@@H](C)O)NC(=O)[C@H](CCCNC(=N)N)NC(=O)[C@H](CC(C)C)NC(=O)[C@H](CCC(=O)O)NC1=O [SD15805] (Ac-PSRLEKELRERLTE-NH2; lactam 6-10)
half-life: > 6 h

* * *

assay: Plasma stability, human plasma; conditions: human plasma, 37° C., timepoint 6 h
Bridge positions count the residues as written; N and C are the ends. Peptide text beside a SMILES is read from it.
recorded-metric: Tube 2 (compound concentration)

molecule: CC(=O)N[C@@H](CO)C(=O)N[C@@H](CCCNC(=N)N)C(=O)N[C@@H](CC(C)C)C(=O)N[C@@H](CCC(=O)O)C(=O)N[C@@H](CCC(=O)O)C(=O)N[C@@H](CCC(=O)O)C(=O)N[C@@H](CC(C)C)C(=O)N[C@@H](CCCNC(=N)N)C(=O)N[C@H]1CCCCNC(=O)CC[C@@H](C(N)=O)NC(=O)[C@H]([C@@H](C)O)NC(=O)[C@H](CC(C)C)NC(=O)[C@H](CCCNC(=N)N)NC1=O [SD15193] (Ac-SRLEEELRKRLTE-NH2; lactam 9-13)
recorded-metric: Tube 2 (compound concentration)
readout-number: 2.678
//
molecule: CC(=O)N[C@@H](CO)C(=O)N[C@@H](CCCNC(=N)N)C(=O)N[C@@H](CC(C)C)C(=O)N[C@@H](CCC(=O)O)C(=O)N[C@H]1CC(=O)NCCCC[C@@H](C(=O)N[C@@H](CCCNC(=N)N)C(=O)N[C@@H](CC(C)C)C(=O)N[C@H](C(=O)N[C@@H](CCC(=O)O)C(N)=O)[C@@H](C)O)NC(=O)[C@H](CCCNC(=N)N)NC(=O)[C@H](CC(C)C)NC(=O)[C@H](CCC(=O)O)NC1=O [SD15196] (Ac-SRLEDELRKRLTE-NH2; lactam 5-9)
recorded-metric: Tube 2 (compound concentration)
readout-number: 1.803
//
molecule: CC(=O)N[C@@H](CO)C(=O)N[C@@H](CCCNC(=N)N)C(=O)N[C@@H](CC(C)C)C(=O)N[C@@H](CCC(=O)O)C(=O)N[C@H]1CCC(=O)NCCCC[C@@H](C(=O)N[C@@H](CCCNC(=N)N)C(=O)N[C@@H](CC(C)C)C(=O)N[C@H](C(=O)N[C@@H](CCC(=O)O)C(N)=O)[C@@H](C)O)NC(=O)[C@H](CCCNC(=N)N)NC(=O)[C@H](CC(C)C)NC(=O)[C@H](CCC(=O)O)NC1=O [SD15194] (Ac-SRLEEELRKRLTE-NH2; lactam 5-9)
recorded-metric: Tube 2 (compound concentration)
readout-number: 2.057

* * *

test system: anti-ALFA VHH; test: binding affinity to the anti-ALFA VHH (log(agonist) vs. response, variable slope); conditions: best-fit values, log(agonist) vs. response, variable slope
Bridge positions count the residues as written; N and C are the ends. Peptide text beside a SMILES is read from it.
Reported values of LogEC50 for individual entries

compound: CC(=O)N[C@@H](CO)C(=O)N[C@@H](CCCNC(=N)N)C(=O)N[C@@H](CC(C)C)C(=O)N[C@@H](CCC(=O)O)C(=O)N[C@H]1CCC(=O)NCCCC[C@@H](C(=O)N[C@@H](CCCNC(=N)N)C(=O)N[C@@H](CC(C)C)C(=O)N[C@H](C(=O)N[C@@H](CCC(=O)O)C(N)=O)[C@@H](C)O)NC(=O)[C@H](CCCNC(=N)N)NC(=O)[C@H](CC(C)C)NC(=O)[C@H](CCC(=O)O)NC1=O [SD15194] (Ac-SRLEEELRKRLTE-NH2; lactam 5-9)
LogEC50: 0.7763
//
compound: CC(=O)N[C@@H](CO)C(=O)N[C@@H](CCCNC(=N)N)C(=O)N[C@@H](CC(C)C)C(=O)N[C@@H](CCC(=O)O)C(=O)N[C@H]1CC(=O)NCCCC[C@@H](C(=O)N[C@@H](CCCNC(=N)N)C(=O)N[C@@H](CC(C)C)C(=O)N[C@H](C(=O)N[C@@H](CCC(=O)O)C(N)=O)[C@@H](C)O)NC(=O)[C@H](CCCNC(=N)N)NC(=O)[C@H](CC(C)C)NC(=O)[C@H](CCC(=O)O)NC1=O [SD15196] (Ac-SRLEDELRKRLTE-NH2; lactam 5-9)
LogEC50: 2.576
//
compound: CC(=O)N[C@@H](CO)C(=O)N[C@@H](CCCNC(=N)N)C(=O)N[C@@H](CC(C)C)C(=O)N[C@@H](CCC(=O)O)C(=O)N[C@@H](CCC(=O)O)C(=O)N[C@@H](CCC(=O)O)C(=O)N[C@@H](CC(C)C)C(=O)N[C@@H](CCCNC(=N)N)C(=O)N[C@H]1CCCCNC(=O)CC[C@@H](C(N)=O)NC(=O)[C@H]([C@@H](C)O)NC(=O)[C@H](CC(C)C)NC(=O)[C@H](CCCNC(=N)N)NC1=O [SD15193] (Ac-SRLEEELRKRLTE-NH2; lactam 9-13)
LogEC50: 0.7818
//
compound: CC(=O)N[C@@H](CO)C(=O)N[C@@H](CCCNC(=N)N)C(=O)N[C@@H](CC(C)C)C(=O)N[C@@H](CCC(=O)O)C(=O)N[C@H]1CCC(=O)NCCCC[C@@H](C(=O)N[C@@H](CCCNC(=N)N)C(=O)N[C@@H](CCCNC(=N)N)C(=O)N[C@@H](CC(C)C)C(=O)N[C@H](C(=O)N[C@@H](CCC(=O)O)C(N)=O)[C@@H](C)O)NC(=O)[C@H](CC(C)C)NC(=O)[C@H](CCC(=O)O)NC1=O [SD15192] (Ac-SRLEEELKRRLTE-NH2; lactam 5-8)
LogEC50: 0.7765
